This collection of values is drawn from patent US20240190849A1.

For each entry below, report its Kd value.
Target: FGFR3 (Homo sapiens)
Construct: made in house; host or cells: E. coli derived from BL21, infected with T7 phage
Sequence (P22607 23-806): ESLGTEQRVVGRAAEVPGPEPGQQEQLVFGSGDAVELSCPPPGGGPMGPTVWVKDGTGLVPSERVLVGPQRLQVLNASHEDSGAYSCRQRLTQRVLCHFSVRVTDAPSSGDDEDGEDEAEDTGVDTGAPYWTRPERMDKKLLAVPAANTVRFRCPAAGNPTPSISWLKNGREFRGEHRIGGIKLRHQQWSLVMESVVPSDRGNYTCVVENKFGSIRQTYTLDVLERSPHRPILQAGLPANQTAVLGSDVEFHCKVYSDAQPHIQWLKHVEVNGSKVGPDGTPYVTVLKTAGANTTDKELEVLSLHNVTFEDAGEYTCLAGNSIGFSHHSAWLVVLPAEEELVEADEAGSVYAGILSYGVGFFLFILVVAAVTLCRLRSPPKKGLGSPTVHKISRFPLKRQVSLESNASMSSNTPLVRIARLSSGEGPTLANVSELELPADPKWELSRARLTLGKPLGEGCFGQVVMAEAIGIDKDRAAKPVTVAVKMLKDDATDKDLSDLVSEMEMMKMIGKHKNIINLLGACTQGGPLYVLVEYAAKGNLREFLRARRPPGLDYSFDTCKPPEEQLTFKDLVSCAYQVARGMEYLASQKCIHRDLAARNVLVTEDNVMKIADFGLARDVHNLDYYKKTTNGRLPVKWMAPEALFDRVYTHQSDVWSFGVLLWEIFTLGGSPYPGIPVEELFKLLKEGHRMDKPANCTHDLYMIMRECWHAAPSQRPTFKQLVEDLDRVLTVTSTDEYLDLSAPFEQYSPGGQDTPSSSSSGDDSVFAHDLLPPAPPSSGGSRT
Experiment: Kinase binding assay (kinase-tagged T7 phage, affinity beads, qPCR readout), FGFR3
Settings: FGFR binding data

>>> readoutvalue("C=CC(=O)Nc1ccc2c(c1)c(C)cn2-c1ncnc(Nc2cnn(C)c2)n1 [Example 218]")
"0.1 to 100 nM"
>>> readoutvalue("Cc1cn(-c2nc(Nc3cnn(CCO)c3)ncc2F)c2ccc(NC(=O)/C=C/CN(C)C)cc12 [Example 144]")
"0.1 to 100 nM"

Batch: Kd for all items listed.
1. C=CC(=O)Nc1ccc2c(ccn2-c2nc(Nc3cnn(C)c3)ncc2Cl)c1C [Example 18]
2. CC#CC(=O)Nc1ccc2c(-c3ccnc(Nc4cnn(CCO)c4)n3)cn(C)c2c1 [Example 145]
3. CC#CC(=O)Nc1cnc2c(c1)c(C)cn2-c1nc(Nc2ccnn2C)ncc1C [Example 131]
4. CCC(=O)Nc1ccc2c(ccn2-c2nc(Nc3ccc(N4CCN(C)CC4)cc3)ncc2Cl)c1 [Example 4]
5. C=CC(=O)Nc1ccc2c(c1)c(C)cn2-c1nc(Nc2c(C)cccc2OCC)ncc1Cl [Example 29]
6. C=CC(=O)Nc1ccc2c(ccn2-c2nc(Nc3ccc(N(C)CCN(C)C)cc3)ncc2Cl)c1 [Example 3]
7. C=CC(=O)Nc1ccc2c(c1)c(C)nn2-c1nc(Nc2ccnn2C)ncc1C [Example 77]

1. 100 to 250 nM
2. 250 to 1000 nM
3. > 1000 nM
4. 100 to 250 nM
5. > 1000 nM
6. 0.1 to 100 nM
7. 250 to 1000 nM

Take each entry in turn and give its Kd.
1. C=CC(=O)Nc1cc2c(C)cn(-c3nc(Nc4ccc(N5CCOCC5)cc4)ncc3Cl)c2cc1C [Example 60]
2. C=CC(=O)Nc1ccc2c(ccn2-c2nc(Nc3cccc(OCCN4CCOCC4)c3)ncc2C)c1C [Example 5]
3. C=CC(=O)Nc1ccc2c(c1)c(C)cn2-c1nc(Nc2cccc(CN3CCOCC3)c2)ncc1Cl [Example 78]
4. C#CC(=O)Nc1ccc2c(-c3nc(Nc4cnn(CCO)c4)ncc3F)cn(C)c2c1 [Example 142]
5. C#CC(=O)Nc1cnc2c(c1)c(C)cn2-c1nc(Nc2ccnn2C)ncc1C [Example 132]

1: > 1000 nM; 2: 100 to 250 nM; 3: 0.1 to 100 nM; 4: 0.1 to 100 nM; 5: 0.1 to 100 nM

* * *

Target: FGFR2 (Homo sapiens)
Construct: made in house; host or cells: E. coli derived from BL21, infected with T7 phage
Sequence (P21802 22-821): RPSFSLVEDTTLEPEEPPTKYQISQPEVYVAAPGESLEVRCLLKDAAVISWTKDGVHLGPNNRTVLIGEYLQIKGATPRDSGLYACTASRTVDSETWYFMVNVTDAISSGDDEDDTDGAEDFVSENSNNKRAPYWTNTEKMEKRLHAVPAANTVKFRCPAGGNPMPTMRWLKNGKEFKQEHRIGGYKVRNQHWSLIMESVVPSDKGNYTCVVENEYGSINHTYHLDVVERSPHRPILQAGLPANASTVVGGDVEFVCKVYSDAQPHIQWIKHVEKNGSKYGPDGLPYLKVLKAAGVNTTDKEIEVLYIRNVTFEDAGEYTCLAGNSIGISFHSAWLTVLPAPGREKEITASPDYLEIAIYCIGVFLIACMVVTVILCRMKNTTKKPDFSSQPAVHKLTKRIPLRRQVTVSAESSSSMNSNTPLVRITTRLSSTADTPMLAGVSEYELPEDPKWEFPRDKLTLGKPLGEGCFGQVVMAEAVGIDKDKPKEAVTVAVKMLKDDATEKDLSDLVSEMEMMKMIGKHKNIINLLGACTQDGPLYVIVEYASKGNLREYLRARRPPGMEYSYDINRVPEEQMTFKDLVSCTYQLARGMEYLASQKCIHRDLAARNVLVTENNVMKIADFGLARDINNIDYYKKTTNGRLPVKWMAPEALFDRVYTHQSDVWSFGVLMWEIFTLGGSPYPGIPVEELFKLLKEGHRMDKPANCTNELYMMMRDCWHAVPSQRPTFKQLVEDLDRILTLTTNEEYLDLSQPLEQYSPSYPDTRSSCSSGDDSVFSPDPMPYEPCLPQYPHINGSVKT
Assay: Kinase binding assay (kinase-tagged T7 phage, affinity beads, qPCR readout), FGFR2
Details: FGFR binding data
Answer each item with its documented Kd.

>>> readoutvalue("C=CC(=O)Nc1ccc2c(-c3ccnc(Nc4cc(C)n(C)n4)n3)cn(C)c2c1")
"100 to 250 nM"
>>> readoutvalue("C=CC(=O)Nc1ccc2c(ccn2-c2nc(Nc3cccc(OCCN4CCOCC4)c3)ncc2Cl)c1C")
"100 to 250 nM"
>>> readoutvalue("Cc1cnc(Nc2cnn(CCO)c2)nc1-n1cc(C)c2cc(NC(=O)/C=C/CN(C)C)ccc21")
"0.1 to 100 nM"
>>> readoutvalue("C=CC(=O)Nc1ccc2c(c1)c(C)cn2-c1ccnc(Nc2cnn(CCO)c2)n1")
"0.1 to 100 nM"
>>> readoutvalue("C=CC(=O)Nc1cc(C)c2c(c1)c(C)cn2-c1nc(Nc2ccc(N3CCOCC3)cc2)ncc1Cl")
"0.1 to 100 nM"

Could you tell me which Kd is on file for `C=CC(=O)Nc1ccc2c(c1)c(C)cn2-c1nc(Nc2cn(C)nc2OC)ncc1C#N` ? 0.1 to 100 nM
